Listing of entries alongside the reported microsomal CLint.
- assay.text: Metabolic stability in liver microsomes, rat
- Format: in vitro ADME
- condition.description: low value = metabolically stable

Reference set (5 entries):
Oc1ccc(C2(c3ccccc3F)CCC(F)(F)CC2)cc1F ... 95 µL/min/mg
Oc1ccc(C2(c3ccccc3F)CCC(F)(F)CC2)cc1 ... 150 µL/min/mg
Oc1ccc(C2(c3ccccc3F)CCCCC2)cc1 ... 405 µL/min/mg
Oc1ccc(C2(c3ccccc3Cl)CCC(F)(F)CC2)cc1 ... 147 µL/min/mg
Oc1ccc(C2(c3ccccc3Cl)CCC(F)(F)CC2)cc1F ... 113 µL/min/mg

Inquiry: Can you share its microsomal CLint? I mean this molecule: Oc1ccc(C2(c3ccccc3Cl)CCCCC2)cc1F
Reply text: 450 µL/min/mg

====

- assay.text: Bioavailability after intravenous and sublingual administration in male beagle dogs
- Format: in vivo
- condition.description: male, beagle, plasma, other: sublingual; dog, sublingual 10 mg/kg vs intravenous 1 mg/kg; read-out: overall percent bioavailability following sublingual dose
endpoint.label: bioavailability (%)
Use % as the unit, but write only the number.

Inquiry: Quick one: bioavailability of Oc1ccc(C2(c3ccccc3F)CCC(F)(F)CC2)cc1 ?
Reply text: 44

====

- test.system: ERβ (Homo sapiens)
- assay.text: Luciferase reporter gene assay (3*ERE) in HEK293 cells, ERβ
- Assay type: cell-based
- Design: expressed in transfected cells; host or cells: HEK293 cells, transient transfection
- condition.description: HEK293 cells, 48 hours; read-out: Luciferase Erβ % Eff
# Emax listing for each entry below
Only the number, expressed in %, is required.

Some compounds with known Emax results, for comparison:
Oc1ccc(C2(c3ccccc3F)CCCCC2)cc1 ... 126
Oc1ccc(C2(c3ccccc3)CCCCC2)cc1 ... 80
Oc1ccc(C2(c3ccccc3Cl)CCC(F)(F)CC2)cc1 ... 74

Kindly review the next compound as well.
Inquiry: What measured Emax goes with Oc1ccc(C2(c3ccccc3Cl)CCCCC2)cc1 ?
Reply text: 101

====

- assay.text: Bioavailability after intravenous and sublingual administration in male beagle dogs
- Type: in vivo
- condition.description: male, beagle, dog, plasma, 10 mg/kg, dog, sublingual 10 mg/kg; read-out: average half-life (converted)
endpoint.label: half-life (h)
Number in h, nothing else.

Inquiry: Query (molecule): Oc1ccc(C2(c3ccccc3F)CCC(F)(F)CC2)cc1 [Compound 8] ; field requested: half-life
Reply text: 2.08

====

- assay.text: Bioavailability after intravenous and sublingual administration in male beagle dogs
- Type: in vivo
- condition.description: male, beagle, plasma; dog, intravenous 1 mg/kg; read-out: average maximum concentration (Cmax)
endpoint.label: Cmax (ng/mL)
Give just the numeric value; ng/mL need not be written.

Inquiry: Given the entry Oc1ccc(C2(c3ccccc3F)CCC(F)(F)CC2)cc1 , report its measured Cmax.
Reply text: 738

====

// values below are reported pEC50
- test.system: ERβ (Homo sapiens, UniProt Q92731)
- Sequence (Q92731 whole entry, species assumed): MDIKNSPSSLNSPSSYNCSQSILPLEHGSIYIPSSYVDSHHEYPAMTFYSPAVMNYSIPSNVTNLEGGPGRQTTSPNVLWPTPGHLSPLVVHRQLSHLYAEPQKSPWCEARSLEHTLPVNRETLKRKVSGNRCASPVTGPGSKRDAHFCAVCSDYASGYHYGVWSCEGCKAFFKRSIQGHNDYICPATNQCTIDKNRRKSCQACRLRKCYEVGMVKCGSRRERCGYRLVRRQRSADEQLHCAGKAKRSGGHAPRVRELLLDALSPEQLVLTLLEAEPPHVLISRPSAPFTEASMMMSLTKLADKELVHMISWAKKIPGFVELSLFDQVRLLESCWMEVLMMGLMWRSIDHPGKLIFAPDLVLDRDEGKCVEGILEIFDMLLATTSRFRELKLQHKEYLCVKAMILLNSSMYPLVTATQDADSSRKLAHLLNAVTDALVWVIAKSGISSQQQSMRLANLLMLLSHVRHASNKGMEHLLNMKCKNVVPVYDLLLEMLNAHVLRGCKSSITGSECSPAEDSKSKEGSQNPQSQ
- assay.text: Luciferase reporter gene assay (3*ERE) in HEK293 cells, ERβ
- Format: cell-based
- Design: expressed in transfected cells; host or cells: HEK293 cells, transient transfection
- Description: HEK293 cells were grown to 70% confluency in DMEM containing 10% calf serum (Hyclone) prior to transfection. […] Cells extracts were then obtained by lyzing and the Luciferase activity measured, all of these steps performed using a commercially available kit (Promega).
// pEC50: -log10(molar conc.)

Please review the following examples before continuing.
Oc1ccc(C2(c3ccccc3Cl)CCCCC2)cc1 ... 8.60
Oc1ccc(C2(c3ccccc3F)CCC(F)(F)CC2)cc1 ... 9.20

Inquiry: Form field: pEC50 recorded for Oc1ccc(C2(c3ccccc3F)CCCCC2)cc1 with ERβ (Homo sapiens, UniProt Q92731) (enter value)
Reply text: 7.70

Inquiry: Now try Oc1ccc(C2(c3ccccc3F)CCC(F)(F)CC2)cc1F .
Reply text: 8.70

Inquiry: Then this molecule: Oc1ccc(C2(c3ccccc3)CCCCC2)cc1
Reply text: 7.70

These entries and their values trace back to patent US9061981B2.
